Every entry's value here was drawn from paper PMC4216211.

target: rat brain TSPO (Rattus norvegicus); format: binding
TEST READOUT: log10 Ki (log10 of the value in nM)
Use the decimal logarithm of Ki (nM).

- COMPOUND: "CC(Sc1cc(-c2ccccc2)nc2ccccc12)C(=O)N(C)c1ccccc1 (stereo not shown) [compound 12]"
  log10 Ki: -0.41
- COMPOUND: "CCCCN(C)C(=O)C(C)Cc1cc(-c2ccccc2)nc2ccccc12 (stereo not shown) [10h]"
  log10 Ki: -0.40
- COMPOUND: "CCCCCN(C)C(=O)C(C)Cc1cc(-c2ccccc2)nc2ccccc12 (stereo not shown) [10i]"
  log10 Ki: -0.22
- COMPOUND: "CC(Cc1cc(-c2ccccc2)nc2ccccc12)C(=O)N(C)C(C)C (stereo not shown) [10j]"
  log10 Ki: 0.46
- COMPOUND: "CC(Cc1cc(-c2ccccc2)nc2ccccc12)C(=O)N(C)c1ccncc1 (stereo not shown) [10q]"
  log10 Ki: 2.03

For the compound shown here, CCN(CC)C(=O)CCc1cc(-c2ccccc2)nc2ccccc12 [10b] , give the reported log10 Ki.
1.51

For the compound shown here, CC(Oc1cc(-c2ccccc2)nc2ccccc12)C(=O)N(C)c1ccccc1 (stereo not shown) [15a] , give the reported log10 Ki.
-1.15

For the compound shown here, CC(C)CN(C)C(=O)C(C)Cc1cc(-c2ccccc2)nc2ccccc12 (stereo not shown) [10l] , give the reported log10 Ki.
0.70

For the compound shown here, CC(Nc1cc(-c2ccccc2)nc2ccccc12)C(=O)N(C)c1ccccc1 (stereo not shown) [compound 14] , give the reported log10 Ki.
-0.72

For the compound shown here, CC(Cc1cc(-c2ccc(Cl)cc2)nc2ccccc12)C(=O)N(C)C(C)C (stereo not shown) [10w] , give the reported log10 Ki.
0.60

---

tested on: human leukocyte HAB and LAB TSPO; assay: Human TSPO genotype sensitivity, Ki in LAB versus HAB leukocytes; type: binding; conditions: genotype sensitivity, ratio of Ki
Mark true (1) for (LAB Ki)/(HAB Ki) under 30, false (0) if at or over.

Past entries and their recorded results:
- COMPOUND: "CC(Oc1cc(-c2cccnc2)nc2ccccc12)C(=O)N(C)c1ccccc1 (stereo not drawn) [22b]"
  CLASS LABEL: "true (1)"
- COMPOUND: "CCCCN(C)C(=O)C(C)Cc1cc(-c2ccccc2)nc2ccccc12 (stereo not drawn) [10h]"
  CLASS LABEL: "false (0)"
- COMPOUND: "CC(Cc1cc(-c2ccccc2)nc2ccccc12)C(=O)N(C)c1ccccc1 (stereo not drawn) [10m]"
  CLASS LABEL: "true (1)"
- COMPOUND: "CC(Nc1cc(-c2ccccc2)nc2ccccc12)C(=O)N(C)c1ccccc1 (stereo not drawn)"
  CLASS LABEL: "true (1)"
- COMPOUND: "CCN(CC)C(=O)[C@H](C)Cc1cc(-c2ccccc2)nc2ccccc12 [(R)-10a]"
  CLASS LABEL: "false (0)"

Please turn your attention to the following entry.
# check: (LAB Ki)/(HAB Ki) < 30 for CC(Cc1cc(-c2ccccc2)nc2ccccc12)C(=O)N(C)C(C)C (stereo not drawn) [10j]
false (0)

---

Consider molecules characterized by their pKi with rat brain TSPO (Rattus norvegicus, UniProt P16257).
Sequence (P16257 whole entry): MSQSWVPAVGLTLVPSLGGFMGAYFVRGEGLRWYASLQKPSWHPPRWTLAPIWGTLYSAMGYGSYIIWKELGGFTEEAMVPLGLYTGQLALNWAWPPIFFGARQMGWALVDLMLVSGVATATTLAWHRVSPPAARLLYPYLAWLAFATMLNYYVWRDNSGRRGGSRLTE
pKi (log units): -log10 of the concentration in mol/L.

Examples with their reported pKi follow.
- MOLECULE: "CCN(CC)C(=O)C(C)Cc1cc(-c2ccccc2)nc2ccccc12 (stereo not shown) [10a]"
  pKi: 8.68
- MOLECULE: "CC(Cc1cc(-c2ccccc2)nc2ccccc12)C(=O)N(C)c1ccccn1 (stereo not shown) [10o]"
  pKi: 8.80
- MOLECULE: "CC(Cc1cc(-c2cccc(Cl)c2)nc2ccccc12)C(=O)N(C)C(C)C (stereo not shown) [10v]"
  pKi: 8.40

Now consider a different molecule.
For the molecule shown here, CC(Cc1cc(-c2ccccc2Cl)nc2ccccc12)C(=O)N(C)C(C)C (stereo not shown) [10u] , give the reported pKi.
7.66

---

target: rat brain TSPO (Rattus norvegicus); assay type: binding; settings: pKi (rat) minus clogD
TEST READOUT: LipE
Number only, please.

Examples with their reported LipE follow.
- MOLECULE: "CCC(Cc1cc(-c2ccccc2)nc2ccccc12)C(=O)N(CC)CC (stereo not drawn) [10c]"
  ASSAYED SYSTEM: "rat brain TSPO (Rattus norvegicus)"
  REPORTED VALUE: 2.6
- MOLECULE: "CCN(CC)C(=O)[C@@H](C)Cc1cc(-c2ccccc2)nc2ccccc12 [(S)-10a]"
  ASSAYED SYSTEM: "rat brain TSPO (Rattus norvegicus)"
  REPORTED VALUE: 2.9

For the molecule shown here, CC(Oc1cc(-c2cccnc2)nc2ccccc12)C(=O)N(C)c1ccccc1 (stereo not drawn) [22b] , give the reported LipE.
5.6

For the molecule shown here, CC(Cc1cc(-c2ccccc2)nc2ccccc12)C(=O)N(C)c1ccccc1 (stereo not drawn) [10m] , give the reported LipE.
3.5

For the molecule shown here, CC(Cc1cc(-c2cccc(Cl)c2)nc2ccccc12)C(=O)N(C)C(C)C (stereo not drawn) [10v] , give the reported LipE.
3.7

For the molecule shown here, CC(Oc1cc(-c2ccccc2)nc2ccccc12)C(=O)N(C)c1ccccc1 (stereo not drawn) [15a] , give the reported LipE.
5.42

For the molecule shown here, CC(Cc1cc(-c2ccccc2)nc2ccccc12)C(=O)N(C)c1cccnc1 (stereo not drawn) [10p] , give the reported LipE.
2.7

---

target: rat brain TSPO (Rattus norvegicus, UniProt P16257); format: binding; settings: pKi (rat) minus clogD
Entries and their LipE
Number only, please.

Examples with their reported LipE follow.
- MOLECULE: "CC(Sc1cc(-c2ccccc2)nc2ccccc12)C(=O)N(C)c1ccccc1 (centres unmarked)"
  REPORTED VALUE: 4.10
- MOLECULE: "CC(C)CN(C)C(=O)C(C)Cc1cc(-c2ccccc2)nc2ccccc12 (centres unmarked) [10l]"
  REPORTED VALUE: 3.3
- MOLECULE: "CCN(CC)C(=O)CCc1cc(-c2ccccc2)nc2ccccc12 [10b]"
  REPORTED VALUE: 2.7
- MOLECULE: "CC(Cc1cc(-c2ccccc2)nc2ccccc12)C(=O)N(C)C (centres unmarked) [10e]"
  REPORTED VALUE: 2.8

Now consider a different molecule.
For the molecule shown here, CC(Oc1cc(-c2ccncc2)nc2ccccc12)C(=O)N(C)c1ccccc1 (centres unmarked) [22c] , give the reported LipE.
5.60
